Reference source for all entries: patent US8809341B2

- Test system: A549 cells
- method-summary: in vitro antiproliferation assay, A549 (lung)
- Format: cell-based
- details: Table 5; in vitro antiproliferation, A549 (lung) cells
recorded-endpoint: IC50

>  <compound>
Fc1cnc(Nc2cccc(C(F)(F)F)c2)nc1Nc1ccc2c(c1)OCCO2 [compound 514]

>  <assayed-target>
A549 cells

>  <IC50>
> 20 µM

$$$$
>  <compound>
CNC(=O)COc1c(C)cc(Nc2ncc(F)c(Nc3ccc4c(c3)OCCO4)n2)cc1C [compound 569]

>  <assayed-target>
A549 cells

>  <IC50>
≤ 20 µM

$$$$
>  <compound>
Cc1cc(Nc2ncc(F)c(Nc3ccc4c(c3)OCO4)n2)cc(C(F)(F)F)c1 [compound 542]

>  <assayed-target>
A549 cells

>  <IC50>
> 20 µM

$$$$
>  <compound>
CC(=O)N1CCN(c2cccc(Nc3ncc(F)c(Nc4ccc5c(c4)OC(F)(F)C(F)(F)O5)n3)c2)CC1 [compound 552]

>  <assayed-target>
A549 cells

>  <IC50>
≤ 20 µM

$$$$
>  <compound>
Oc1cccc(Nc2ncc(F)c(Nc3ccc4c(c3)OCCO4)n2)c1 [compound 482]

>  <assayed-target>
A549 cells

>  <IC50>
> 20 µM

$$$$
>  <compound>
Cc1cc(Nc2ncc(F)c(Nc3ccc4c(c3)OC(F)(F)C(F)(F)O4)n2)cc(C(F)(F)F)c1 [compound 538]

>  <assayed-target>
A549 cells

>  <IC50>
≤ 20 µM

$$$$
>  <compound>
O=C(O)COc1ccc(Nc2ncc(F)c(Nc3ccc4c(c3)OCCO4)n2)cc1 [compound 490]

>  <assayed-target>
A549 cells

>  <IC50>
> 20 µM

$$$$
>  <compound>
Cc1cc(C)cc(Nc2ncc(F)c(Nc3ccc4c(c3)OC(F)(F)C(F)(F)O4)n2)c1 [compound 537]

>  <assayed-target>
A549 cells

>  <IC50>
≤ 20 µM

$$$$

The recorded IC50 for Fc1cnc(Nc2ccc(OCCN3CCOCC3)cc2)nc1Nc1ccc2c(c1)OCCO2 [compound 502] is > 20 µM

The recorded IC50 for CCc1ccc(Nc2ncc(F)c(Nc3ccc4c(c3)OCCO4)n2)cc1 [compound 489] is > 20 µM

The recorded IC50 for CNC(=O)COc1cccc(Nc2ncc(F)c(Nc3ccc4c(c3)OC(F)(F)C(F)(F)O4)n2)c1 [compound 503] is < 20 µM
